settings: buffer; pH 7.4; 200.0 µM
Below, each of the compounds is paired with its reported solubility kinetic value.

Consider the reported solubility kinetic for these compounds:
INSERT INTO measurements (compound, measuredvalue) VALUES
  ('O=C(COC(=O)Cc1ccsc1)Nc1ccccc1Cl', '> 46.5 µg/mL'),
  ('COc1cn(-c2ccccc2)nc1C(=O)NCc1ccccc1', '> 46.1 µg/mL'),
  ('CCOC(=O)c1ccc(NS(=O)(=O)c2cn(C)cn2)cc1', '> 46.4 µg/mL'),
  ('O=C(NCCc1cnc[nH]1)c1cccs1', '> 33.2 µg/mL');

Asked: // returns reported solubility kinetic for input "CC(C)N=C(Nc1cccnc1)c1ccccc1"
Given back: > 35.9 µg/mL

Asked: Repeat with "O=C(O)c1cccc(S(=O)(=O)Nc2ccc(N3CCCCC3)cc2)c1"
Given back: > 54.1 µg/mL

Asked: Would you kindly repeat that for "O=C(CNC(=O)c1ccc(Br)o1)NCc1ccccc1" ?
Given back: > 50.6 µg/mL

Asked: Let us now turn to O=C1c2ccccc2NC(c2cccc([N+](=O)[O-])c2)N1O (stereo not drawn)
Given back: > 42.8 µg/mL

Asked: "CCOc1ccccc1N1CCN(C(=O)NCc2ccc(C)cc2)CC1" , same question.
Given back: > 53 µg/mL

Asked: Now the same for "Nc1nc(Nc2ccccc2)nc(C(F)(F)F)n1"
Given back: > 38.3 µg/mL

Asked: Entry to check: "CN(C)/C(=N\S(=O)(=O)c1ccc(Cl)cc1)c1ccc(F)cc1"
Given back: > 51.1 µg/mL

Asked: Thanks! And "CC1(C)C(=O)N(c2ccccc2Cl)C(=O)c2ccccc21" ?
Given back: 44.3 µg/mL

----------
conditions: buffer; pH 7.4; 200.0 µM
readoutKind: solubility kinetic

Example results:
INSERT INTO assay_data (compound, readoutkind, measuredvalue) VALUES
  ('Cc1cc(=O)[nH]c(SCC(=O)Nc2ccc(F)c([N+](=O)[O-])c2)n1', 'solubility kinetic', '> 50.7 µg/mL'),
  ('CCOC(=O)CCN1C(=O)c2ccccc2Sc2ncccc21', 'solubility kinetic', '> 49.3 µg/mL');

Asked: # solubility kinetic lookup, item "CCN(CC(=O)NCc1cccs1)C(=O)c1cc(=O)[nH]c2ccccc12"
Given back: > 55.4 µg/mL

Asked: "Cc1ccc(C(=O)NCCN2CCOCC2)cc1[N+](=O)[O-]" ?
Given back: > 44 µg/mL

----------
conditions: buffer; pH 7.4; 200.0 µM
Rule: solubility kinetic of 30 µg/mL or more gives label 1; anything lower gives label 0.

These solved cases illustrate the format of a correct answer.
INSERT INTO measurements (molecule, classassignment) VALUES
  ('COc1ccc(N/C=C\C(=O)c2ccc3ccccc3c2)cc1', 'label 0'),
  ('Cc1csc(SCC(=O)Nc2nccs2)n1', 'label 1');

Asked: Hi team, for "Cc1ccnc(NC(=O)Cc2ccc(F)cc2)n1" , is the recorded solubility kinetic at or above 30 µg/mL?
Given back: label 1

Asked: Let us now turn to "COC(=O)c1sc(-c2ccc(Cl)cc2)cc1N"
Given back: label 0

----------
Quick list: solubility kinetic per entry.
conditions: buffer; pH 7.4; 200.0 µM

// below: answered compounds
INSERT INTO assay_data (compound, readoutkind, measuredvalue) VALUES
  ('O=C1NC(=O)C(Cc2cccc(Oc3ccccc3)c2)S1 (stereo not drawn)', 'solubility kinetic', '> 44.9 µg/mL'),
  ('CC(=O)N1CCN(S(=O)(=O)c2ccc3c(c2)CCC(=O)N3)CC1', 'solubility kinetic', '> 50.6 µg/mL');

With those in mind, consider the next compound.
Asked: Using the record for "Cc1ccc(NC(=O)C[n+]2ccccc2)cc1C.[Cl-]" , report its solubility kinetic.
Given back: > 41.5 µg/mL
